Assay: soluble on expression in E. coli; label from the status in PepcDB or PDB records
measuredMetric: soluble on expression in E. coli

// soluble on expression in E. coli lookup, key: "MGSDKIHHHHHHVDWNWNGDIRFRYDSSKTELASSPDKPADDRYRLRARFGVSPTINDELSAGLRLATGDGKNPTSTNQTLGKDFADKAIWLDEAYINYHPKALEGKVNVLLGKRDIAKTFNVVKDLVWDSDVTIEGATLQYGKDVSGKQKSGPSLIAGYYTLENYATASDPCIFAVQGAYMGTVSGADFNLGASYFDYVHMKNVAWWNSPNGPANDGKDFRILEVFGTLGGKLGGSLPATLYAQYAHNTALNSDNNAVLAGLKLGSDKKPGGWTLDGGYFYIEKYAVTPLTDGDRPMSSKYSTDIKGLKIGATYQLVQNMTLGATYFHVNPVDSSLTGSTSDHKNLVQADVAVNF" not soluble

"MSAVFGAKYTLRFGHVLAPGEPYHQAFLKWAKAVEEKTNGDVRIEVFPSSQLGVEEDIIEQIRMGAPVGWNTDSARLGMYVKDIGVMNLAYFIDFMGAKTPEEAIEVLKKIKQSPTMQKWLKELEQRFGIKVLSFYWVQGYRHFVTNKPIRKPEDLNGLRIRTPGAPAWQESIRSLGAIPVAVNFGEIYTAVQTRAVDGAELTYANVYNGGLYEVLKYMSETGHFLLINFEIVSADWFNSLPKEYQKIIEEEMDKAGIEVSLKIMKELEEEYKQKCIEKGMAVIPASEIDKEAFMEKAKQAYKNLGLENALNQLIKEVKGEHHHHHH" ? soluble

"MAHHHHHHMMGHLTLPQLCLNVQHGKYSKKTQRPPTLSQRCVTTLISSRISRKLSPADCPTYTSTLLSAEGSTTENLKYNHRGPTTTFSATASNPIIFPN" ? not soluble

"AHHHHHHGSKPKVFITRAIPENGINMLEEEFEVEVWEEEREIPREKLLEKVKDVDALVTMLSERIDQEVFENAPRLRIVANYAVGYDNIDVEEATRRGIYVTNTPDVLTNATADHAFALLLATARHVVKGDKFVRSGEWKRKGIAWHPKWFLGYELYGKTIGIVGFGRIGQAIARRAKGFNMRILYYSRTRKSQAEKELGAEYRPLEEVLKESDFVILAVPLTKETMYMINEERLKLMKPTAILVNIARGKVVDTKALIKALKEGWIAGAGLDVFEEEPYYNEELFSLDNVVLTPHIGSATFEAREAMAELVARNLIAFKRGEIPPTLVNKEVIKIRKPGFNEQ" ? not soluble

"NVVLKDASELLDEVVVIGYGAVKKSDLTSSISTVKGKEITETVTGNAMDALQGKINGVQVTSGGGPGAQPKVLIRGVTTVNGTDPLYVVDGMPVGTNINFLNSNDIESMEVLKDASAAAIYGTRASNGVILITTKKGMAGK" ? not soluble

New cases:
// soluble on expression in E. coli lookup, key: "MGSDKIHHHHHHANSTNTIVSTSNMASTAYTRKSATGWTYNLGGTATNMTFGKKTHYLKNYPNTTWHATKKRYIIKKNGVKYLYYYVTNGRKTAAGWIWHGYLQKKSYAHTATTTSSTGTGTYDSILKAAKTQLGKPYAYGGNGPSAFDCSGFTKYVFNQAIGQTLPRTAQAQYDSYTHVSAANAKAGDLIFFGTSASNITHCGIYLGNHKMIDAQLNGVITEATNVSWWHTVGYSRPATLS" not soluble

"MKIISKEFTVKTRSRFDSIDITEQVSEAIKGINNGIAHVIVKHTTCAIIINEAESGLMKDFLNWAKKLVPPDGEFEHNIIDNNGHAHVISAIIGNSRVVPIIEGKLDLGTWQRIILLEFDGPRTRTVLVKSMGE" ? soluble
